Form field: residual activity (one value per entry).
target: CDK7 CCNH MNAT1 (human) (UniProt P50613+P51948+P51946); test: radiometric filter-binding kinase assay, Kinase HotSpot; details: compound 0.5 µM; ATP 10 µM
Sequence (P50613 whole entry, looked up): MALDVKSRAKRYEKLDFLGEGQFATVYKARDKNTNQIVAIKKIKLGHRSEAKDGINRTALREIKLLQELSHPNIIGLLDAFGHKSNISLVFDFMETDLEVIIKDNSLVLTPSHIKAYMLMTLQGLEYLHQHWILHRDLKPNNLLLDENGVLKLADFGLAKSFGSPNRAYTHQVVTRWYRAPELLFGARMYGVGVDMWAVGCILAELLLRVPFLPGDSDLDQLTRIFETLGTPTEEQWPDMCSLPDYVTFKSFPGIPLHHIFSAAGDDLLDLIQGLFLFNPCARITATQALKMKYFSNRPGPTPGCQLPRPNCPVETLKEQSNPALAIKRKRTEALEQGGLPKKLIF
Sequence (P51946 whole entry, looked up): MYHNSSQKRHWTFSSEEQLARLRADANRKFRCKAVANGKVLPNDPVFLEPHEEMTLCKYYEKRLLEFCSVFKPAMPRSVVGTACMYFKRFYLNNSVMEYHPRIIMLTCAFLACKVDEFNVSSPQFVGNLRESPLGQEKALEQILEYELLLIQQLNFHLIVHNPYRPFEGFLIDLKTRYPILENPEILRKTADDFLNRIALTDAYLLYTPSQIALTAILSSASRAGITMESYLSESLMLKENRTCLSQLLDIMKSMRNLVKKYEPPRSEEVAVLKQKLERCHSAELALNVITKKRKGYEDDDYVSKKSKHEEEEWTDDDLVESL
Sequence (P51948 whole entry, looked up): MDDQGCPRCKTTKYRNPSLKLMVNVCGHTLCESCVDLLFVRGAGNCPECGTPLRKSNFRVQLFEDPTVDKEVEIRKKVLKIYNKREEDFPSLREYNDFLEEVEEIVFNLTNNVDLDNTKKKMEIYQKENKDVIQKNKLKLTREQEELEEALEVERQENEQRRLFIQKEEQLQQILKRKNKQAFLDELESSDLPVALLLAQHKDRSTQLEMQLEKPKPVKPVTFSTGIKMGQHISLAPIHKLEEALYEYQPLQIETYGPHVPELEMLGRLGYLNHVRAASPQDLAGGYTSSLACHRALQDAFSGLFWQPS
Report only the number, with the unit % understood.

The following molecules have reported results that may help.
Looking for the measured residual activity of CO[C@H]1CC2CC[C@@H](C)[C@@](O)(O2)C(=O)C(=O)N2CCCC[C@H]2C(=O)OC([C@H](C)C[C@@H]2CC[C@@H](O)[C@H](OC)C2)CC(=O)[C@H](C)/C=C(\C)[C@@H](O)[C@@H](OC)C(=O)[C@H](C)C[C@H](C)/C=C/C=C/C=C/1C (stereo partly drawn) , can you help?
98.2

Name the recorded residual activity for Cc1ccc(NC2=CC(=O)c3sc(C)nc3C2=O)cc1 .
95.4

More entries:
So what does the record say about residual activity for Cc1ccc(Nc2nccc(N(C)c3ccc4c(C)n(C)nc4c3)n2)cc1S(N)(=O)=O ?
103

// residual activity lookup, key: c1ccc(-c2n[nH]cc2-c2ccnc3ccccc23)nc1
104

I am curious: what residual activity value has been reported for Cc1ccc(S(=O)(=O)/C=C/C#N)cc1 ?
98.2

I have this molecule here, N#CC(C#N)=C(N)/C(C#N)=C/c1ccc(O)cc1 , and I need its recorded residual activity.
91.2

Any idea what its residual activity is? The molecule is COC[C@H]1OC(=O)c2coc3c2[C@@]1(C)C1=C(C3=O)[C@@H]2CCC(=O)[C@@]2(C)C[C@H]1OC(C)=O
93.3

Bench note: what residual activity did Cc1[nH]c(/C=C2\C(=O)Nc3ccc(S(=O)(=O)N(C)c4cccc(Cl)c4)cc32)c(C)c1C(=O)N1CCN(C)CC1 show?
59.7

---

target: MAPKAPK3 (human); assay: radiometric filter-binding kinase assay, Kinase HotSpot; conditions: compound 0.5 µM; ATP 10 µM
metric: residual activity
Number plus unit, in that order.

// query residual activity value for entry Cc1ccc(S(=O)(=O)/C=C/C#N)cc1
97.8%

Can you look up the measured residual activity of CC(C)N(CCC(=O)c1ccc2ccccc2c1)Cc1ccccc1 for me?
95.7%

What does the data say about its residual activity? Entry: N#CC(C#N)=C(N)/C(C#N)=C/c1ccc(O)cc1
99.9%

Tell me the measured residual activity of CCOC(=O)c1c(C)[nH]c(/C=C2\C(=O)Nc3ccccc32)c1C , please.
91.7%

Which residual activity is reported for this compound? Cc1[nH]c(/C=C2\C(=O)Nc3ccc(S(=O)(=O)N(C)c4cccc(Cl)c4)cc32)c(C)c1C(=O)N1CCN(C)CC1
96.9%

Recorded residual activity for O=S(=O)(c1cccc2cnccc12)N1CCCNCC1 , please?
99.7%

Value lookup for residual activity; key = O=C1NC(=O)c2c1c1c3ccccc3n3c1c1c2c2ccccc2n1C1CCC3O1
93.1%

What does the data say about its residual activity? Entry: O=C1Nc2ccc(Cl)cc2/C1=C/c1cc(Cl)c(O)c(Cl)c1
88.4%

More entries:
// residual activity lookup, key: c1ccc(-c2n[nH]cc2-c2ccnc3ccccc23)nc1
92.9%

Requested field: residual activity. Item: Nc1ccc2ncnc(NCCc3ccc(Oc4ccccc4)cc3)c2c1
101%

# residual activity lookup, item CCN(CC)CCNC(=O)c1c(C)[nH]c(/C=C2\C(=O)Nc3ccc(Cl)cc32)c1C
101%

What does the record list as residual activity for Nc1cccc(-c2cc3c(Oc4cccc(O)c4)ncnc3[nH]2)c1 ?
97.6%

# query: residual activity of entry CNC(=O)c1cc(Oc2ccc(NC(=O)Nc3ccc(Cl)c(C(F)(F)F)c3)cc2)ccn1
100%

Would you mind telling me what residual activity value was observed for O=C1NC(=O)/C(=C/c2ccc3c(c2)OC(F)(F)O3)S1 ?
94.2%

For the compound shown here, c1ccc(-c2n[nH]c3c2oc2ccccc23)cc1 , give the reported residual activity.
100%

GET /values?readout=residual activity&item= COc1ccc2c(c[n+](C)c3c4cc5c(cc4ccc23)OCO5)c1OC
83%

// query residual activity value for entry O=c1cc(N2CCOCC2)oc2c1ccc1ccccc12
105%

Fill blank: measured residual activity of the compound O=C(Nc1cccc(Nc2nccc(Nc3cccc(C(F)(F)F)c3)n2)c1)C1CC1 is ____.
93%

// returns reported residual activity for input CCN(CC)C(=O)c1ccc(Nc2nc(OCC3CCCCC3)c3nc[nH]c3n2)cc1
103%

For Oc1cccc(-c2nc(N3CCOCC3)c3oc4ncccc4c3n2)c1 , what is its reported residual activity?
93.9%

Which measured residual activity value corresponds to Cc1ccc(NC2=CC(=O)c3sc(C)nc3C2=O)cc1 ?
76.5%

What does the data say about its residual activity? Entry: CNc1cc2c(Nc3cccc(Br)c3)ncnc2cn1
99.2%

---

biological target: CSNK1G2 (human) (UniProt P78368); experiment: radiometric filter-binding kinase assay, Kinase HotSpot; settings: compound 0.5 µM; ATP 10 µM
Sequence (P78368 whole entry, looked up): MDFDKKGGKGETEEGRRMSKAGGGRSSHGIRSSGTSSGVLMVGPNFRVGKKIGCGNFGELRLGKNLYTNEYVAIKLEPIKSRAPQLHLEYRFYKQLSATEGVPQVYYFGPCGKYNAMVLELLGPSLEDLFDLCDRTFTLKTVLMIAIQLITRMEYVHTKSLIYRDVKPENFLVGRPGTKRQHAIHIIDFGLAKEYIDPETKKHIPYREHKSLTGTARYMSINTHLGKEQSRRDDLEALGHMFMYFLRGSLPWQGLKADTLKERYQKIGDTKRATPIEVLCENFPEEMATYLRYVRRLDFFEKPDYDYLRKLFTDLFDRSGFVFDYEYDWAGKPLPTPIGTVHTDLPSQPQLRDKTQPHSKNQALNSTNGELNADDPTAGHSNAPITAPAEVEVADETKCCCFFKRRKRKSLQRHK
metric: residual activity (%)
Report the figure in % without appending any unit label.

Below: 5 molecules and their reported residual activity.
Fill in: residual activity of O=C1NC(=O)/C(=C/c2ccc3c(c2)OC(F)(F)O3)S1 is ___
84.5

Quick one: residual activity for CC(C)N(CCC(=O)c1ccc2ccccc2c1)Cc1ccccc1 ?
104

If you can, please state the reported residual activity value of c1ccc(-c2n[nH]c3c2oc2ccccc23)cc1 .
86.4

What does the record list as residual activity for CCC(=O)Nc1ccc2ncnc(Nc3cccc(Br)c3)c2c1 ?
98.1

Entry COc1ccc2c(c[n+](C)c3c4cc5c(cc4ccc23)OCO5)c1OC : reported residual activity = ?
96.8

Continuing:
So what does the record say about residual activity for N#CC(C#N)=C(N)/C(C#N)=C/c1ccc(O)cc1 ?
104

---

Measured residual activity by item
target: MUSK (human); assay: radiometric filter-binding kinase assay, Kinase HotSpot; details: compound 0.5 µM; ATP 10 µM
Give just the number in %; leave the unit off.

Solved entries (count: 2):
residual activity for CNC(=O)c1cc(Oc2ccc(NC(=O)Nc3ccc(Cl)c(C(F)(F)F)c3)cc2)ccn1 ?
101

Could you tell me which residual activity is on file for O=c1cc(N2CCOCC2)oc2c1ccc1ccccc12 ?
75.6

// moving on: another record for residual activity
Could you share which residual activity value was measured for CCN(CC)CCNC(=O)c1c(C)[nH]c(/C=C2\C(=O)Nc3ccc(F)cc32)c1C ?
51.3

---

residual activity listing for selected molecules.
biological target: INSR (human) (UniProt P06213); test: radiometric filter-binding kinase assay, Kinase HotSpot; settings: compound 0.5 µM; ATP 10 µM
Sequence (P06213 whole entry, looked up): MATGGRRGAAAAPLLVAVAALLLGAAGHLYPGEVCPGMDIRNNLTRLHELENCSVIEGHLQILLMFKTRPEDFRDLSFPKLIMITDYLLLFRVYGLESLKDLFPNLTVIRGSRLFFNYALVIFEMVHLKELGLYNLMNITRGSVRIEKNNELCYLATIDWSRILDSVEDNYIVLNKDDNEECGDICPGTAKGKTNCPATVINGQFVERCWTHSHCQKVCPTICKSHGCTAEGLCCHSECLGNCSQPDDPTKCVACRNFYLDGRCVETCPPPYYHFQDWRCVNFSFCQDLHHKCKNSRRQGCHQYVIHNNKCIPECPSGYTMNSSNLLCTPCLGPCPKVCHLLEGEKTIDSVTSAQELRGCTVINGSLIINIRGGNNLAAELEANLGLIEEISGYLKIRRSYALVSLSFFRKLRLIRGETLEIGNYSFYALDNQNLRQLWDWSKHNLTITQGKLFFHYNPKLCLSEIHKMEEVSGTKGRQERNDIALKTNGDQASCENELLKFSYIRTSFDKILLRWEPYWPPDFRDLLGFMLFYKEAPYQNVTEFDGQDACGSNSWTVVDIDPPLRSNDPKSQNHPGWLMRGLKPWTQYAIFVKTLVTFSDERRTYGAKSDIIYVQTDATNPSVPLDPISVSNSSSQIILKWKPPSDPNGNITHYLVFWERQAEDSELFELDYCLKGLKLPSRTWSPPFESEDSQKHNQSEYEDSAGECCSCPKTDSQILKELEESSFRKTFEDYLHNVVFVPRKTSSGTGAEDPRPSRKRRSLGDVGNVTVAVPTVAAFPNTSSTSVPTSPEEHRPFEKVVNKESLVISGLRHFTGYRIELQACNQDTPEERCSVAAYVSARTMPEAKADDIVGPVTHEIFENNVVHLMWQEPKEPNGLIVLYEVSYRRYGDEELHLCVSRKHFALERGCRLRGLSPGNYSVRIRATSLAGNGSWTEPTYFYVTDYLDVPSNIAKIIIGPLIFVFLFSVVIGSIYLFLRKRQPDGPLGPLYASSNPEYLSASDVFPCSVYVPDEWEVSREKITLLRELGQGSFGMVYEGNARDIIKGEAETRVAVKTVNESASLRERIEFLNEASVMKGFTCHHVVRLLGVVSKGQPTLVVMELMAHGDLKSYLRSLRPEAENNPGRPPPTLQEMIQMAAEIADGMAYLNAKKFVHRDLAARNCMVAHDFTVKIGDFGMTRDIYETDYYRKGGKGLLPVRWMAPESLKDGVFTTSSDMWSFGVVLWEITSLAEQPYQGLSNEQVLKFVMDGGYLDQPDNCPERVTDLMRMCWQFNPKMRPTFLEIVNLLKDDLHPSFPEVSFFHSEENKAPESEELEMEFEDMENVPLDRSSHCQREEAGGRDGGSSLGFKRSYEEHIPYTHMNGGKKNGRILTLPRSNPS
Record the value in %, omitting the unit from your answer.

Give the measured residual activity of Cc1ccc(NC2=CC(=O)c3sc(C)nc3C2=O)cc1 .
92.6

# input molecule: O=C1NC(=O)C(c2cn(CCCn3ccnc3)c3ccccc23)=C1Nc1ccccc1 ; wanted: its residual activity
84.4

Further cases:
What measured residual activity goes with CO[C@H]1CC2CC[C@@H](C)[C@@](O)(O2)C(=O)C(=O)N2CCCC[C@H]2C(=O)OC([C@H](C)C[C@@H]2CC[C@@H](O)[C@H](OC)C2)CC(=O)[C@H](C)/C=C(\C)[C@@H](O)[C@@H](OC)C(=O)[C@H](C)C[C@H](C)/C=C/C=C/C=C/1C (some centres undefined) ?
90.3

---

target: TAOK2 (human) (UniProt Q9UL54); assay: radiometric filter-binding kinase assay, Kinase HotSpot; details: compound 0.5 µM; ATP 10 µM
Sequence (Q9UL54 whole entry, looked up): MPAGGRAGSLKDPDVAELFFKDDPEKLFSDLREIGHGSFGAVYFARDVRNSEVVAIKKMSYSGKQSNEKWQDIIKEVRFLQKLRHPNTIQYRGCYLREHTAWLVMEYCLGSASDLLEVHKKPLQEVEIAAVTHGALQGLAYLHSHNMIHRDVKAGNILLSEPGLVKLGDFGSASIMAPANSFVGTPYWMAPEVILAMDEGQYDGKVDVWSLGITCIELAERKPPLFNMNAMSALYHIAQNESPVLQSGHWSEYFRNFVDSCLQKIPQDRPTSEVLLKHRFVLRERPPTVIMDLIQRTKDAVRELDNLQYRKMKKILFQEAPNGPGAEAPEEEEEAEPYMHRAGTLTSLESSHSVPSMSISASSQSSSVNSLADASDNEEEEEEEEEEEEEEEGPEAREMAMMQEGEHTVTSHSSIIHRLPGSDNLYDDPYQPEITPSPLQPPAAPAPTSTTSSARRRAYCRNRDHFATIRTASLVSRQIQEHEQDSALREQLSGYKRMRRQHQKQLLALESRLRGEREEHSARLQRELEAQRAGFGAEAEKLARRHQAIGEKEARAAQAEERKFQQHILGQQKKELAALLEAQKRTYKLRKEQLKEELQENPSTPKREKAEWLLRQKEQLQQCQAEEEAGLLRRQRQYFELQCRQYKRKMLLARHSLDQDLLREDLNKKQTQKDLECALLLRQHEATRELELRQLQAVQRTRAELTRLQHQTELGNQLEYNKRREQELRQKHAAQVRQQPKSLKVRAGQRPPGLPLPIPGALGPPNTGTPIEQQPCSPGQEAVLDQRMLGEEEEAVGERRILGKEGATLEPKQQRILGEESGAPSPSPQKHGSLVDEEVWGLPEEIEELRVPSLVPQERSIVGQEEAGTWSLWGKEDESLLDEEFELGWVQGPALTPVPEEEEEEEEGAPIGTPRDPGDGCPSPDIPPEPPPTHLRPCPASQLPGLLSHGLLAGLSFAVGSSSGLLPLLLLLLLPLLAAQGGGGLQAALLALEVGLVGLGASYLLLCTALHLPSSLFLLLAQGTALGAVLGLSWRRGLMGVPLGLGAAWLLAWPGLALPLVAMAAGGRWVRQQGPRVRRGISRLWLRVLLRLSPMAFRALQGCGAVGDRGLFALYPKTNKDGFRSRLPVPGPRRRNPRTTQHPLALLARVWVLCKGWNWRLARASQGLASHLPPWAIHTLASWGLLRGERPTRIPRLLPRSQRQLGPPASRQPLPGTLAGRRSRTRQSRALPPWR
# Lookup of reported residual activity keyed by entry
// note: answer is a bare numeric in %

// lookup residual activity | system=TAOK2 (human) (UniProt Q9UL54) | key= O=c1cc(N2CCOCC2)oc2c1ccc1ccccc12
108

Please tell me: residual activity of COc1ccc2c(c[n+](C)c3c4cc5c(cc4ccc23)OCO5)c1OC , system TAOK2 (human) (UniProt Q9UL54)?
95

Missing value: residual activity, TAOK2 (human) (UniProt Q9UL54), entry CCN(CC)C(=O)c1ccc(Nc2nc(OCC3CCCCC3)c3nc[nH]c3n2)cc1 . Fill in?
66

Could you share what residual activity was measured for O=C(Nc1cccc(Nc2nccc(Nc3cccc(C(F)(F)F)c3)n2)c1)C1CC1 , tested on TAOK2 (human) (UniProt Q9UL54)?
92.4

Recorded residual activity for CC[n+]1c(/C=C/N(C)c2ccccc2)n(-c2ccccc2)c2ccc(-c3nc4ccccc4s3)cc21 with TAOK2 (human) (UniProt Q9UL54), please?
97.7

---

Form field: residual activity (one value per entry).
biological target: UniProt:P51956; test: radiometric filter-binding kinase assay, Kinase HotSpot; conditions: compound 0.5 µM; ATP 10 µM
Sequence (P51956 whole entry, looked up): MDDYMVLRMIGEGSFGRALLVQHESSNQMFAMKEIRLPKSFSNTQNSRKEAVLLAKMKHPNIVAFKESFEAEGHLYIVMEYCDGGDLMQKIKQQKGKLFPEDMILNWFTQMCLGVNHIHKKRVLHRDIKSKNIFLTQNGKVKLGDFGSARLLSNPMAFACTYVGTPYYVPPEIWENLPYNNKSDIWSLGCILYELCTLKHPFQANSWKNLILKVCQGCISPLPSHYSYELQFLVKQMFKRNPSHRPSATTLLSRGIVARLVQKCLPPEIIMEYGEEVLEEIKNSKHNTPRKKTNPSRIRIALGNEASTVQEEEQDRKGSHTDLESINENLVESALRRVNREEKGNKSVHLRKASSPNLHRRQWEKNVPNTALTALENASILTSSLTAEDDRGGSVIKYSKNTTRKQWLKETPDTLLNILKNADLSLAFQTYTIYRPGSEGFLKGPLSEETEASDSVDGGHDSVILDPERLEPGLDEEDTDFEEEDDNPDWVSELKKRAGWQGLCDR
Output spec: scalar in %, unitless text.

May I ask what residual activity has been recorded for CNC(=O)c1cc(Oc2ccc(NC(=O)Nc3ccc(Cl)c(C(F)(F)F)c3)cc2)ccn1 ?
97.2

Report residual activity for O=C1NC(=O)c2c1c1c3ccccc3n3c1c1c2c2ccccc2n1C1CCC3O1 please.
102

Looking for the measured residual activity of Nc1ccc2ncnc(NCCc3ccc(Oc4ccccc4)cc3)c2c1 , can you help?
108

// residual activity lookup, key: CCN(CC)CCNC(=O)c1c(C)[nH]c(/C=C2\C(=O)Nc3ccc(F)cc32)c1C
91.6

Query: residual activity; subject: N#C/C(=C(/N)Sc1ccc(N)cc1)c1ccccc1C(F)(F)F
99.6

# residual activity lookup, item c1ccc(-c2n[nH]cc2-c2ccnc3ccccc23)nc1
90.2

I am curious: what residual activity value has been reported for CCN(CC)C(=O)c1ccc(Nc2nc(OCC3CCCCC3)c3nc[nH]c3n2)cc1 ?
69.4

Record request: residual activity value, item Oc1cccc(-c2nc(N3CCOCC3)c3oc4ncccc4c3n2)c1
92.9

Continuing:
GET /values?readout=residual activity&item= COc1cc2ncnc(Nc3cccc(Cl)c3)c2cc1OC
84.3

Please look up its residual activity: c1ccc(-c2n[nH]c3c2oc2ccccc23)cc1
98.9

Sample CC[n+]1c(/C=C/N(C)c2ccccc2)n(-c2ccccc2)c2ccc(-c3nc4ccccc4s3)cc21 — what was its residual activity?
102

Item under review: O=C1Nc2ccc(Cl)cc2/C1=C/c1cc(Cl)c(O)c(Cl)c1 . Reported residual activity?
94

Which measured residual activity value corresponds to CCC(=O)Nc1ccc2ncnc(Nc3cccc(Br)c3)c2c1 ?
99.6

# query: residual activity of entry O=C1NC(=O)/C(=C/c2ccc3c(c2)OC(F)(F)O3)S1
92.6

GET /values?readout=residual activity&item= Nc1cccc(-c2cc3c(Oc4cccc(O)c4)ncnc3[nH]2)c1
57.5

Please give the measured residual activity for this compound: N#CC(C#N)=C(N)/C(C#N)=C/c1ccc(O)cc1
98

For the compound O=c1cc(N2CCOCC2)oc2c1ccc1ccccc12 , what residual activity is on record?
111

Could you tell me which residual activity is on file for O=C1NC(=O)C(c2cn(CCCn3ccnc3)c3ccccc23)=C1Nc1ccccc1 ?
99.5

Field request: residual activity | item: CC(C)N(CCC(=O)c1ccc2ccccc2c1)Cc1ccccc1
101

If you can, please state the reported residual activity value of COc1ccc(COc2ccc(Cc3cnc(N)nc3N)cc2OC)cc1 .
98.1

What residual activity value was documented for this compound, Cc1[nH]c(/C=C2\C(=O)Nc3ccc(S(=O)(=O)N(C)c4cccc(Cl)c4)cc32)c(C)c1C(=O)N1CCN(C)CC1 ?
98.7

Fill in the blank: the reported residual activity of Nc1ncnc2[nH]nc(Nc3ccc(F)cc3)c12 is ____.
102

The measured values listed here are drawn from the kinase profiling compilation of Christmann-Franck et al. (2016).
